Value source: ChEMBL document CHEMBL1122949

Target: Renin (Homo sapiens, UniProt P00797)
Sequence (P00797 whole entry): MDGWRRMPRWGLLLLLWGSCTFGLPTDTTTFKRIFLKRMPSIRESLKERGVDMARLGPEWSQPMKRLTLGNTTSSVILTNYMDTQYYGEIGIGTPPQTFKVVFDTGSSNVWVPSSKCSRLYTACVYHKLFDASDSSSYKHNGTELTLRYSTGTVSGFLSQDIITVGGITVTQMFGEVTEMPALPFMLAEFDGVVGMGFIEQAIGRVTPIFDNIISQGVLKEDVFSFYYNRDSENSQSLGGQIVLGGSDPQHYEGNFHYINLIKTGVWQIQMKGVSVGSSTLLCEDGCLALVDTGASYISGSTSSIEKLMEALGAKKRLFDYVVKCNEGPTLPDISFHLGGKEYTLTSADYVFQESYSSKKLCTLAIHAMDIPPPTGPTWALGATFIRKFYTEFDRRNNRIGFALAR
Assay: Compound was evaluated for the ability to inhibit human plasma renin.
Numbered stars: 1 amine (or outer) side, 2 acyl side, 3 side chain; on linkers, the order of the positions; unused ones are H or OH. Square brackets hold non-standard residues; d marks the D form. Peptide text beside a SMILES is read from it. * marks the point of attachment. ξ: configuration not given here. X1 = CC[C@H](C)[C@H](NC(=O)[C@H](CC(C)C)NC[C@H](CC(C)C)N*)C(=O)N[C@@H](Cc1c[nH]cn1)C(=O)O; LeuΨ(ξCHOHCH2)Val = CC(C)C[C@H](N[*:1])C(O)C[C@H](C(=O)[*:2])C(C)C; Sta(3ξ) = CC(C)C[C@H](N[*:1])C(O)CC(=O)[*:2]; Isovaleryl = CC(C)CC(=O)*; Boc = CC(C)(C)OC(=O)*
Values of IC50 strictly less than 2 nM map to 1, and values of at least 2 nM map to 0.

Q: In plain terms, does CC[C@H](C)[C@H](NC(=O)CC(O)[C@H](CC(C)C)NC(=O)[C@H](Cc1c[nH]cn1)NC(=O)[C@H](Cc1ccccc1)NC(=O)[C@@H]1CCCN1C(=O)[C@H](Cc1c[nH]cn1)NC(=O)CC(C)C)C(=O)N[C@@H](Cc1ccccc1)C(=O)OC (stereo partly specified) (Isovaleryl-HPFH[Sta(3ξ)]IF-OMe) come in under 2 nM for IC50?
Ans: 1

Q: In plain terms, does CC[C@H](C)[C@H](NC(=O)[C@H](CC(C)C)NC[C@H](CC(C)C)NC(=O)[C@H](Cc1c[nH]cn1)NC(=O)[C@H](Cc1ccccc1)NC(=O)[C@@H]1CCCN1C(=O)[C@H](Cc1c[nH]cn1)NC(=O)[C@@H]1CCCN1)C(=O)N[C@@H](Cc1c[nH]cn1)C(=O)O (H-PHPFH-X1) come in under 2 nM for IC50?
Ans: 0

Q: In plain terms, does CC[C@H](C)[C@H](NC(=O)[C@H](Cc1ccccc1)NC(=O)[C@H](Cc1ccccc1)NC(=O)[C@H](Cc1c[nH]cn1)NC(=O)[C@H](Cc1ccccc1)NC(=O)[C@@H]1CCCN1C(=O)[C@H](Cc1c[nH]cn1)NC(=O)[C@@H]1CCCN1)C(=O)N[C@@H](Cc1c[nH]cn1)C(=O)O come in under 2 nM for IC50?
Ans: 0

Q: In plain terms, does CC[C@H](C)[C@H](NC(=O)[C@@H](CC(O)[C@H](CC(C)C)NC(=O)[C@H](Cc1cnc[nH]1)NC(=O)[C@H](Cc1ccccc1)NC(=O)[C@@H]1CCCN1C(=O)[C@H](Cc1cnc[nH]1)NC(=O)OC(C)(C)C)C(C)C)C(=O)N[C@@H](Cc1cnc[nH]1)C(=O)O (stereo partly specified) (Boc-HPFH[LeuΨ(ξCHOHCH2)Val]IH-OH) come in under 2 nM for IC50?
Ans: 1

Q: In plain terms, does CC[C@H](C)[C@H](NC(=O)CC(O)[C@H](CC(C)C)NC(=O)[C@H](Cc1c[nH]cn1)NC(=O)[C@H](Cc1ccccc1)NC(=O)[C@@H]1CCCN1C(=O)[C@H](Cc1c[nH]cn1)NC(=O)CC(C)C)C(=O)N[C@@H](Cc1ccccc1)C(N)=O (stereo partly specified) (Isovaleryl-HPFH[Sta(3ξ)]IF-NH2) come in under 2 nM for IC50?
Ans: 1

Q: In plain terms, does CC[C@H](C)[C@H](NC(=O)[C@H](CC(C)C)NC[C@H](CC(C)C)NC(=O)C(Cc1c[nH]cn1)NC(=O)[C@H](Cc1ccccc1)NC(=O)[C@@H]1CCCN1C(=O)C(N)Cc1c[nH]cn1)C(=O)NC(Cc1c[nH]cn1)C(=O)O (stereo in doubt) come in under 2 nM for IC50?
Ans: 0
